Measured GI50 values are reported for all entries that follow.
System: M19-MEL
protocol: NCI tumour cell line growth inhibition, 48 h
The source made the active and inactive calls. No stated cut-off is given here; in the data, active = GI50 up to about 1.1 µM and inactive = higher.

• Oc1c(-c2ccccc2)nc2ccccn12 = > 100 µM (inactive)

Query :: For M19-MEL, give the measured GI50 of the entry CCC1(CN(C)C)CC/C(=C\c2ccc(OC)cc2)C1=O (stereo not drawn)
Result :: > 100 µM (inactive)

Query :: // fetch GI50; item: Nc1nccc2c1ncn2C1C=C(CO)C(O)C1O (stereo not drawn) ; system: M19-MEL
Result :: 62.5 µM (inactive)

* * *

System: SF-539
protocol: NCI tumour cell line growth inhibition, 48 h
The source made the active and inactive calls. No stated cut-off is given here; in the data, active = GI50 up to about 1.1 µM and inactive = higher.
Field 'call' accepts class 1 for active, class 0 for inactive

Use the examples below as a reference point.
* Cc1ccc(S(=O)(=O)N2CCN(CCN(C)CCN3CCN(S(=O)(=O)c4ccc(C)cc4)CC3)CC2)cc1 | class 0
* O=C(Nc1nccs1)NS(=O)(=O)n1cnc2ccccc21 | class 0
* COC(=O)/C(=N\Nc1nnc(C)n1N)C(C#N)c1ccccc1 (stereo unspecified) | class 0
* C[C@]12CCC(=O)C(O)=C1CCC2=O | class 0
* COc1ccc2nc3ccc(OC)cc3c([S+]([O-])Cc3ccc([N+](=O)[O-])cc3)c2c1 (stereo unspecified) | class 0
* CCc1nc(N)nc(N)c1-c1ccc(NCCN)c([N+](=O)[O-])c1 | class 0
* O=C1C(c2ccccc2)=C(c2ccccc2)C(c2ccccc2)/C1=C1\C(=O)C(c2ccccc2)=C(c2ccccc2)C1c1ccccc1 (stereo unspecified) | class 0
* CCOC(=O)C(C(N)=O)C1=Nc2cc([N+](=O)[O-])ccc2N/C1=C\C(=O)c1ccc(C)cc1 (stereo unspecified) | class 0

Query :: // return assay outcome for CCCCCCCCCC(=O)CC(=O)c1c(O)cccc1O
Result :: class 0

Query :: Lab log entry: O/N=C(\CC(O)(C(F)(F)F)C(F)(F)F)c1cccs1 — outcome as called in the assay?
Result :: class 0

Query :: Fill in: this test's call for O=C(O)CC1NC(/C(=C/c2ccccc2)NC(=O)c2ccccc2)OC1=O (stereo unspecified) is ___
Result :: class 0

Query :: What classification did CC(=O)OC12COC1CC(O)C1(C)C(=O)C(O)C3=C(C)C(O)CC(O)(C(OC(=O)c4ccccc4)C21)C3(C)C (stereo unspecified) end up with in this test?
Result :: class 0

Query :: I'd appreciate the recorded outcome for CC(C)=CC(=O)c1[nH]c2ccccc2c1CC(=O)NCCc1c[nH]cn1 from this test.
Result :: class 0

Query :: So what was the verdict on B.CC(=O)OC1CN2CCC1CC2 (stereo unspecified) in this test?
Result :: class 0

Query :: // outcome(item) with item = CC(C)(C)CC(C)(C)c1cc2c(O)c(c1)Cc1cc(C(C)(C)CC(C)(C)C)cc(c1O)Cc1cc(C(C)(C)CC(C)(C)C)cc(c1O)Cc1cc(C(C)(C)CC(C)(C)C)cc(c1O)Cc1cc(C(C)(C)CC(C)(C)C)cc(c1O)C2
Result :: class 0

Query :: What did this assay record as the result for OCC1C(OCc2ccccc2)C(OCc2ccccc2)C(OCc2ccccc2)CN1Cc1ccccc1 (stereo unspecified) ?
Result :: class 0

Query :: Please indicate how the test categorized CCOC(=O)N1c2ccccc2S(=O)(=O)c2ccccc21 .
Result :: class 0

Query :: I'd appreciate the recorded outcome for COc1cc(OC)c2c3c(OC)cc(OC)c4c(=O)c(O)c(C[C@@H](C)O)c(c5c(C[C@@H](C)O)c(O)c(=O)c1c25)c43 from this test.
Result :: class 0

Query :: Test call, this compound: CC(=N/NC(=S)N1CCCCC1)/C(C)=N\NC(=S)N1CCCCC1
Result :: class 0

Query :: // param item: CCCN1C(=O)/C(=C(/O)C(=O)OCC)C(c2ccc(OC)c(OC)c2)C1=O (stereo unspecified) ; yields the recorded call
Result :: class 0

Query :: Given Cc1cc(NS(=O)(=O)c2ccc(Nc3c4ccccc4nc4c(C(=O)Nc5ccc(S(=O)(=O)N=C(N)N)cc5)cccc34)cc2)no1 , state the outcome it received in this test.
Result :: class 0

Query :: So what was the verdict on CC(=O)c1ccc2c(c1)CC1(C2)Cc2ccccc2C1=O (stereo unspecified) in this test?
Result :: class 0

Query :: Record lookup: outcome of this test for c1ccc2c(c1)SCCCSCCCS2 ?
Result :: class 0

Query :: Lab log entry: CC(=O)OC(C)c1cc2c(s1)C(=O)c1ccsc1C2=O (stereo unspecified) — outcome as called in the assay?
Result :: class 1
